Catalogue of compounds with associated inhibition at 0.1 µM
- Experimental Target: 5-HT1A human receptors (Homo sapiens)
- Construct: expressed in transfected cells; host or cells: CHO cells
- Sequence (P08908 1-422): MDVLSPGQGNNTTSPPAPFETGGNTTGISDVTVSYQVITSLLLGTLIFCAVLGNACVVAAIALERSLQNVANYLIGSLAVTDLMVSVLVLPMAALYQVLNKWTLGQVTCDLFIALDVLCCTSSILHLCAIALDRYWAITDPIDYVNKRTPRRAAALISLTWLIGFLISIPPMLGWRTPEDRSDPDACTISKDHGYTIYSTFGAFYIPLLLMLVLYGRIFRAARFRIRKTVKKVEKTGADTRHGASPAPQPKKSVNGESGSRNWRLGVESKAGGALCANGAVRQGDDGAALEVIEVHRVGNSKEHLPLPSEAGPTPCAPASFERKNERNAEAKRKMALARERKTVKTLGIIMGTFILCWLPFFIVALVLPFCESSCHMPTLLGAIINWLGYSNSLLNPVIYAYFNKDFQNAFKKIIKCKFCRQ
- Method Description: 5-HT1A Radioligand Receptor Binding Assay ([3H]-8-OH-DPAT, CHO cell membranes)
- Test Parameters: compound at 10^-7 M, singlicate; [3H]-8-OH-DPAT 0.6-0.7 nM; read-out: 5-HT1A receptor binding assay % inhib. (10^-7 M)
Provide the reading as a plain figure in %.

> print(dat)
                      smiles.representation  measured.result
1  O=c1n(C/C=C\CN2CCN(c3ccc(Cl)c(Cl)c3)CC2)c2ccccc2n1CCO               59
2  O=c1n(C/C=C\CN2CCN(c3ccccc3)CC2)c2ccccc2n1CCO               86
3  COc1ccccc1N1CCN(CCCCn2c(=O)n(CCO)c3ccccc32)CC1               92

Fill in the blank: the reported inhibition at 0.1 µM of "O=c1n(CCN2CC=C(c3ccccc3)CC2)c2ccccc2n1CCN1CCOCC1" is ____.
67

For the compound "O=c1n(C/C=C/CN2CCN(c3cccc(Cl)c3)CC2)c2ccccc2n1CCN1CCOCC1" , what inhibition at 0.1 µM is on record?
99

Using the record for "O=c1n(CCO)c2ccccc2n1CCN1CCN(c2cccc(C(F)(F)F)c2)CC1" , report its inhibition at 0.1 µM.
94

Requested field: inhibition at 0.1 µM. Item: "O=c1n(CCO)c2ccccc2n1CCCCN1CCc2c([nH]c3ccccc23)C1"
73

Need inhibition at 0.1 µM of "O=c1n(C/C=C\CN2CCN(c3cccc(Cl)c3)CC2)c2ccccc2n1CCO" , thanks.
89

----------
Listing of recorded pIC50 by entry.
- Experimental Target: 5-HT1A human receptors (Homo sapiens, UniProt P08908)
- Construct: expressed in transfected cells; host or cells: CHO cells
- Method Description: 5-HT1A Radioligand Receptor Binding Assay ([3H]-8-OH-DPAT, CHO cell membranes)
- Test Parameters: [3H]-8-OH-DPAT displacement, CHO membranes; read-out: 5-HT1A receptor binding IC50
Here pIC50 is given on a logarithmic scale as minus log10 of the concentration in mol/L.

> print(dat)
                      smiles.representation  measured.result
1  Cc1cccc(N2CCN(CCn3c(=O)n(CCNS(C)(=O)=O)c4ccccc43)CC2)c1C             8.13
2  O=c1n(CCO)c2ccccc2n1CCN1CCN(c2cccc(C(F)(F)F)c2)CC1             8.09
3  COCCn1c(=O)n(CCCCN2CCN(c3cccc(C(F)(F)F)c3)CC2)c2ccccc21             8.00
4  CCNC(=O)OCCn1c(=O)n(CCN2CCN(c3ccccc3Cl)CC2)c2ccccc21             7.82

Please look up its pIC50: "CCNC(=O)OCCn1c(=O)n(CCN2CCN(c3cccc(C(F)(F)F)c3)CC2)c2ccccc21"
8.68

Field request: pIC50 | item: "COCCn1c(=O)n(CCN2CCN(c3cccc(C)c3C)CC2)c2ccccc21"
8.48
